# Test system: Meloidogyne incognita
# EXPERIMENT SUMMARY: Meloidogyne incognita test
# Format: in vivo
# CONDITION: 20 ppm; eggs and larvae, salad seeds in sand; after 14 days
# Procedure: Meloidogyne incognita—Test Solvent: 125.0 parts by weight of acetone To produce a suitable preparation of active compound, 1 part by weight of active compound is mixed with the stated amount of solvent, and the concentrate is diluted with water to the desired concentration. […] After 14 days the nematicidal activity is determined on the basis of the percentage of gall formation. […]
MEASURED ENDPOINT: nematicidal activity (gall formation) (%)
Report only the number, with the unit % understood.

Consider the reported nematicidal activity (gall formation) for these compounds:
O=C(Nc1nc(-c2c(F)cccc2F)ns1)c1ccccc1C(F)(F)F
90
CCc1ncccc1C(=O)Nc1nc(-c2c(F)cccc2F)ns1
100
O=C(Nc1nc(-c2ccccc2C(F)(F)F)ns1)c1cccnc1C(F)(F)F
100
O=C(Nc1nc(-c2c(F)cccc2F)ns1)c1c(F)cccc1C(F)(F)F
100
O=C(Nc1nc(-c2c(F)cccc2F)ns1)c1cccnc1C(F)F
100
O=C(Nc1nc(-c2c(F)cccc2F)ns1)C1=C(C(F)F)OCCS1
70

O=C(Nc1nc(-c2c(F)cccc2F)ns1)c1c(F)cccc1F has a reported nematicidal activity (gall formation) of 90

Field nematicidal activity (gall formation) (entry O=C(Nc1nc(-c2c(F)cccc2F)ns1)c1ccccc1Cl ) reads 90

The reported value for O=C(Nc1nc(-c2c(F)cccc2F)ns1)c1ccccc1F in terms of nematicidal activity (gall formation) is 100

Sure, the documented nematicidal activity (gall formation) for O=C(Nc1nc(-c2c(F)cccc2F)ns1)c1cccnc1C(F)(F)F.[Na+] is 100
